Data origin: the supplement of paper PMC10724198

- Test system: Saccharomyces cerevisiae
- protocol: protein stability index of tFT-peptide fusion (C-terminal peptide) (PSI (0-1 scale)); higher = more stable (slower turnover)
- assay_context: genetic background: wild type; temperature: 30 C
observed_property: protein stability index
Lab note: jot the number down without any unit.

# construct_sequence, assay_result
data = [
    ("SLLLFPCPWFGL", 0.677),
    ("GFCLGSLPQRLD", 0.65),
    ("TNARDPPGPTPH", 0.586),
]

Prompt: Return protein stability index (reported value) for this sequence: PHPPSDLLPYRP
Response: 0.691

Prompt: Return protein stability index (reported value) for this sequence: DLYPSVWVSIGP
Response: 0.721

Prompt: Return protein stability index (reported value) for this sequence: KKTITNNCPSYD
Response: 0.664

Prompt: Return protein stability index (reported value) for this sequence: ATYNASLERLRP
Response: 0.719

Prompt: Return protein stability index (reported value) for this sequence: GPPPPATPTPPR
Response: 0.767

Prompt: Return protein stability index (reported value) for this sequence: MACCGVFISHKT
Response: 0.615

Prompt: Return protein stability index (reported value) for this sequence: APSFSSPPVPLF
Response: 0.698

###

sequences and their reported protein stability index
- System: Saccharomyces cerevisiae
- protocol: protein stability index of tFT-peptide fusion (C-terminal peptide) (PSI (0-1 scale)); higher = more stable (slower turnover)
- assay_context: genetic background: das1 deletion; temperature: 30 C
Lab note: jot the number down without any unit.

# construct_sequence, system_under_test, protein stability index
records = [
    ("NEMRERLRALQN [VPS24 C-terminal 12 aa]", "Saccharomyces cerevisiae", 0.668),
]

Prompt: Return protein stability index (reported value) for this sequence: SLNQPELINFKS [IZH4 C-terminal 12 aa]
Response: 0.714

Prompt: Return protein stability index (reported value) for this sequence: MERLQKGWSLAK [MDY2 C-terminal 12 aa]
Response: 0.71

Prompt: Return protein stability index (reported value) for this sequence: MAQNYVIDRMGL [MTC1 C-terminal 12 aa]
Response: 0.707

Prompt: Return protein stability index (reported value) for this sequence: LFVTDGSLLLDL [EDC3 C-terminal 12 aa]
Response: 0.703

Prompt: Return protein stability index (reported value) for this sequence: IHYLLHIERERK [YOR385W C-terminal 12 aa]
Response: 0.683

Prompt: Return protein stability index (reported value) for this sequence: STVLINVCKPTY [BAR1 C-terminal 12 aa]
Response: 0.681

Prompt: Return protein stability index (reported value) for this sequence: ARTKRLVQFEAR [RPC10 C-terminal 12 aa]
Response: 0.683

Prompt: Return protein stability index (reported value) for this sequence: FSFTEEPRIVMI [DCD1 C-terminal 12 aa]
Response: 0.689

Prompt: Return protein stability index (reported value) for this sequence: TEKDSTTTNYRK [YJL218W C-terminal 12 aa]
Response: 0.702

Prompt: Return protein stability index (reported value) for this sequence: GAGVMAAAAMLL [TIR2 C-terminal 12 aa]
Response: 0.714

Prompt: Return protein stability index (reported value) for this sequence: INKASVKFFFFA [YJL119C C-terminal 12 aa]
Response: 0.637

Prompt: Return protein stability index (reported value) for this sequence: FSAGNYKLPPGI [KTR3 C-terminal 12 aa]
Response: 0.68

Prompt: Return protein stability index (reported value) for this sequence: RLYDRINGKPHD [MRP10 C-terminal 12 aa]
Response: 0.671

Prompt: Return protein stability index (reported value) for this sequence: TTIKNIDILNRT [SMC4 C-terminal 12 aa]
Response: 0.717

Prompt: Return protein stability index (reported value) for this sequence: LNKEALKHNMLK [HSH49 C-terminal 12 aa]
Response: 0.691

Prompt: Return protein stability index (reported value) for this sequence: YMIRFIANGYYY [SWR1 C-terminal 12 aa]
Response: 0.613

Prompt: Return protein stability index (reported value) for this sequence: YAGIPENKIIGV [ARG56 C-terminal 12 aa]
Response: 0.703

Prompt: Return protein stability index (reported value) for this sequence: SPTRKRPPPRLS [INN1 C-terminal 12 aa]
Response: 0.726

Prompt: Return protein stability index (reported value) for this sequence: AKDFLEKRGISK [PAM18 C-terminal 12 aa]
Response: 0.711

Prompt: Return protein stability index (reported value) for this sequence: LEEFLVRGTNNQ [ATP25 C-terminal 12 aa]
Response: 0.711

Prompt: Return protein stability index (reported value) for this sequence: SGNNLGICFYKE [NUP170 C-terminal 12 aa]
Response: 0.673
